Molecular target: BRD4 bromo domain 2 [BRD4(2)] (Homo sapiens, UniProt O60885)
Construct: N-terminally His6-tagged BRD4(2) (amino acids 357-445)
Test: BRD4/acetylated peptide H4 binding assay (TR-FRET), BRD4 bromo domain 2
Settings: inhibition of BRD4(2)/Ac-H4 peptide interaction
pIC50: −log10 of the molar value.
Label rule, in plain words: pIC50 of 7 and up is YES, under 7 is NO.

• C[C@@H]1C(=O)N(C)c2ccc(Nc3cccc(S(=O)(=O)NC4CCN(C)CC4)c3)nc2N1C1CCNCC1 = YES
• C[C@@H]1C(=O)N(C)c2ccc(Nc3cccc(S(=O)(=O)N4CCN(CC(F)(F)F)CC4)c3)nc2N1C1CCOCC1 = YES
• C[C@@H]1C(=O)N(C)c2ccc(Nc3cccc(C(=O)N[C@H]4CC[C@H](N5CCN(CC6CC6)CC5)CC4)c3)nc2N1C1CCNCC1 = NO
• C[C@@H]1C(=O)N(C)c2ccc(Nc3cccc(C(=O)NC4CCN(C)CC4)c3)nc2N1C1CCN(C(=O)OC(C)(C)C)CC1 = NO

====

# key: entry, value: IC50
Target: BRD4 bromo domain 1 [BRD4(1)] (Homo sapiens, UniProt O60885)
Construct: N-terminally His6-tagged BRD4(1) (amino acids 67-152)
Test: BRD4/acetylated peptide H4 binding assay (TR-FRET), BRD4 bromo domain 1
Conditions: inhibition of BRD4(1)/Ac-H4 peptide interaction
recorded-metric: IC50 (nM)

* CNS(=O)(=O)c1cccc(Nc2ccc3c(n2)N(C2CCOCC2)[C@H](C)C(=O)N3C)c1 | 38
* C[C@@H]1C(=O)N(C)c2ccc(Nc3cccc(C(=O)NC4CN(C)C4)c3)nc2N1C1CCCC1 | 91
* CC1C(=O)N(C)c2ccc(Nc3cccc(C(=O)NC4CCN(C)CC4)c3)nc2N1c1ccccc1 (racemic) | 956
* C[C@@H]1C(=O)N(C)c2ccc(Nc3cccc(C(=O)NCCN(C)C)c3)nc2N1C1CCCC1 | 144

====

Biological target: BRD4 bromo domain 2 [BRD4(2)] (Homo sapiens, UniProt O60885)
Construct: N-terminally His6-tagged BRD4(2) (amino acids 357-445)
Assay: BRD4/acetylated peptide H4 binding assay (TR-FRET), BRD4 bromo domain 2
Details: inhibition of BRD4(2)/Ac-H4 peptide interaction
Text: Protein-Protein Interaction Assay: BRD4/Acetylated Peptide H4 Binding Assay To assess the BRD4(2) binding strength of the substances described in this application, the ability thereof to inhibit the interaction between BRD4(2) and acetylated histone H4 in a dose-dependent manner was quantified. […]
# key: entry, value: IC50
recorded-metric: IC50 (nM)

• C[C@@H]1C(=O)N(C)c2ccc(Nc3cccc(C(=O)NC4CCN(C)CC4)c3)cc2N1C1CCOCC1 [Example 109] = 1120
• C[C@@H]1C(=O)N(C)c2ccc(Nc3cccc(S(=O)(=O)NC4CCN(C)CC4)c3)nc2N1Cc1ccccc1 [Example 33] = 76
• C[C@@H]1C(=O)N(C)c2ccc(Nc3cccc(C(=O)NC4CCN(C)CC4)c3)nc2N1C1CCCC1 [Example 2] = 89
• COc1ccc(S(=O)(=O)N2CC3(COC3)C2)cc1Nc1ccc2c(n1)N(C1CCOCC1)[C@H](C)C(=O)N2C [Example 30] = 58
• COc1ccc(CN2c3cc(Nc4cccc(S(=O)(=O)N(C)C)c4)ccc3N(C)C(=O)[C@H]2C)cc1 [Example 10] = 62
• CCN(CC)S(=O)(=O)c1cccc(Nc2ccc3c(n2)N(C2CCOCC2)[C@H](C)C(=O)N3C)c1 [Example 32] = 39
• CC(C)N1c2nc(Nc3cccc(C(=O)N4CCN(CC5CC5)CC4)c3)ccc2N(C)C(=O)[C@H]1C [Example 88] = 177
• C[C@@H]1C(=O)N(C)c2ccc(Nc3cccc(S(=O)(=O)NCCN(C)C)c3)nc2N1C1CCNCC1 [Example 128] = 137
• COc1c(Nc2ccc3c(n2)N(C2CCOCC2)[C@H](C)C(=O)N3C)cccc1C(=O)N[C@H]1CC[C@H](N2CCN(CC3CC3)CC2)CC1 [Example 91] = 325
• C[C@@H]1C(=O)N(C)c2ccc(Nc3cccc(S(=O)(=O)N(C)C)c3)nc2N1C1CCNCC1 [Example 123] = 62
• CC(C)N1c2nc(Nc3cccc(C(=O)NC4CCN(C)CC4)c3)ccc2N(C)C(=O)[C@H]1C [Example 94] = 115
• COc1ccc(Nc2ccc3c(n2)N(C2CCOCC2)[C@H](C)C(=O)N3C)cc1C(=O)N1CCN(C)CC1 [Example 83] = 227
• CC1C(=O)N(C)c2ccc(Nc3cccc(C(=O)NC4CCN(C)CC4)c3)nc2N1c1ccccc1 (racemic) [Example 104] = 471
• CC(C)N1CCN(C(=O)c2cccc(Nc3ccc4c(n3)N(C3CCCCC3)[C@H](C)C(=O)N4C)c2)CC1 [Example 85] = 189
• C[C@@H]1C(=O)N(C)c2ccc(Nc3cccc(S(=O)(=O)N4CCN(CC(F)(F)F)CC4)c3)nc2N1C1CCN(C(=O)OC(C)(C)C)CC1 [Example 66] = 308
• COc1ccc(S(=O)(=O)N2CCOCC2)cc1Nc1ccc2c(n1)N(C1CCOCC1)[C@H](C)C(=O)N2C [Example 28] = 53
• C[C@@H]1C(=O)N(C)c2ccc(N(C)c3cccc(S(=O)(=O)N(C)C)c3)nc2N1C1CCOCC1 [Example 54] = 62
• CC(C)N1c2nc(Nc3cccc(S(=O)(=O)N[C@H]4CC[C@H](N5CCN(CC6CC6)CC5)CC4)c3)ccc2N(C)C(=O)[C@H]1C [Example 34] = 125
• C[C@@H]1C(=O)N(C)c2ccc(Nc3cccc(C(=O)N(C)C)c3)cc2N1C1CCN(C(=O)OC(C)(C)C)CC1 [Example 105] = 598
• C[C@@H]1C(=O)N(C)c2ccc(Nc3cccc(S(=O)(=O)NC4CC4)c3)nc2N1C1CCOCC1 [Example 26] = 31
• C[C@@H]1C(=O)N(C)c2ccc(Nc3cccc(S(=O)(=O)N4CCCC4)c3)nc2N1C1CCN(C)CC1 [Example 24] = 55
• C[C@@H]1C(=O)N(C)c2ccc(Nc3cccc(S(=O)(=O)N4CC(F)(F)C4)c3)nc2N1C1CCN(C)CC1 [Example 29] = 64
• C[C@@H]1C(=O)N(C)c2ccc(Nc3cccc(C(=O)N(C)C)c3)cc2N1C1CCNCC1 [Example 133] = 990
• CNS(=O)(=O)c1cccc(Nc2ccc3c(n2)N(C2CCOCC2)[C@H](C)C(=O)N3C)c1 [Example 39] = 135
• COCCN1c2nc(Nc3cccc(S(=O)(=O)N4CCN(C)CC4)c3)ccc2N(C)C(=O)C1C (racemic) [Example 53] = 186
• C[C@@H]1C(=O)N(C)c2ccc(Nc3cccc(S(=O)(=O)NCC4CCN(C)CC4)c3)nc2N1C1CCOCC1 [Example 44] = 88
• C[C@@H]1C(=O)N(C)c2ccc(Nc3cccc(C(=O)N[C@H]4CC[C@H](N5CCN(CC6CC6)CC5)CC4)c3)nc2N1c1ccc(F)cc1 [Example 93] = 2450
